For each entry below, report its inhibition at 1 µM value.
- assayed-system: FAAH (Mus musculus (Mouse))
- Sequence (O08914 whole entry): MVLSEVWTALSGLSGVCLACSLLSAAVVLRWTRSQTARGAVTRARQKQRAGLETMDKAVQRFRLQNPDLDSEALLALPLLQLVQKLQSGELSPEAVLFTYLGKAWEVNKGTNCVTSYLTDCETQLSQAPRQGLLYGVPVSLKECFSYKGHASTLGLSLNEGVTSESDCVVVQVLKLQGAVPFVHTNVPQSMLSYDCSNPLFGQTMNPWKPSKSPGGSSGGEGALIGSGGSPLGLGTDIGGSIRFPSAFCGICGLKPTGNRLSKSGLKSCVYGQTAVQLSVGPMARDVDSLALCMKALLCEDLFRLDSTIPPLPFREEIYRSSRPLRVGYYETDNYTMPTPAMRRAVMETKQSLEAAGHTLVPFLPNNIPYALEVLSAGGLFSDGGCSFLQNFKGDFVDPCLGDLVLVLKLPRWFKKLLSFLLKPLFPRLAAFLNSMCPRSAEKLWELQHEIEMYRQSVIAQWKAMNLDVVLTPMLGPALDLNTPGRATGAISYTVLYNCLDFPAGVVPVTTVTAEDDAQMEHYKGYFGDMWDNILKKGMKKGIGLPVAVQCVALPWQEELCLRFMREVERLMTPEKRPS
- measurement-protocol: In vitro competitive activity-based protein profiling, mouse proteomes (brain membrane fraction or cell lysates)
- Format: biochemical
- condition-set: mouse proteome, read-out: FAAH % inh. 1 μM (mouse)

*Q* Which inhibition at 1 µM is listed for CN(Cc1ccc(C(F)(F)F)cc1N1CCOCC1)C1(C)CCN(C(=O)n2ccc(NS(C)(=O)=O)n2)CC1 ?
*A* 0 to 25%

*Q* Name the recorded inhibition at 1 µM for CS(=O)(=O)Nc1ccn(C(=O)N2CCN(Cc3ccc(Cl)c(N4CC5CN(C(N)=O)CC5C4)c3)CC2)n1 (stereo not shown) .
*A* 0 to 25%

*Q* So what's the measured inhibition at 1 µM for this one? CC(C)OC1CCN(c2cc(CN3CCN(C(=O)n4ccc(NS(C)(=O)=O)n4)C[C@@H]3C)ccc2Cl)CC1
*A* 0 to 25%

*Q* So what does the record say about inhibition at 1 µM for CC(=O)Nc1ccn(C(=O)N2CCN(Cc3ccc(C(F)(F)F)cc3NCCCC(=O)O)CC2)n1 ?
*A* 0 to 25%

*Q* Param item = CC(C)(O)COc1cccc(CN2CCN(C(=O)n3ccc(NS(C)(=O)=O)n3)CC2)c1Cl ; retrieve measured inhibition at 1 µM.
*A* > 75%

*Q* If you can, please state the reported inhibition at 1 µM value of CC(=O)Nc1ccn(C(=O)N2CCC3(CCCN3C(=O)c3cc4ccc(C(F)(F)F)cc4s3)CC2)n1 .
*A* > 75%

*Q* # lookup: inhibition at 1 µM of CC(=O)Nc1ccn(C(=O)N2CC3CN(Cc4ccc(N5CCCC5)cc4Cl)CC3C2)n1 (stereo not shown)
*A* > 75%

----------
- assayed-system: MAGL (Mus musculus (Mouse))
- Sequence (O35678 whole entry): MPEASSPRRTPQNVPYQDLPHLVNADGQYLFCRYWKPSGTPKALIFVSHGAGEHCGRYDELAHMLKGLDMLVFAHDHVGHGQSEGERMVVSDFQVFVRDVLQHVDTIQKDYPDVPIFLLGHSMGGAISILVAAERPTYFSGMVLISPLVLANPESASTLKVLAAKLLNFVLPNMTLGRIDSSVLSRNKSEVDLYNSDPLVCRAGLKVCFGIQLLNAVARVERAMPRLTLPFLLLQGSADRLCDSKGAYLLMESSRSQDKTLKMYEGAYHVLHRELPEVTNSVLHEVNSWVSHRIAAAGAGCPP
- measurement-protocol: In vitro competitive activity-based protein profiling, mouse proteomes (brain membrane fraction or cell lysates)
- Assay type: biochemical
- condition-set: mouse proteome, read-out: MAGL % inh. 1 μM (mouse)
recorded-metric: inhibition at 1 µM

*Q* Which inhibition at 1 µM is reported for this compound? CC(=O)Nc1ccn(C(=O)N2CCC3(CCN(C(=O)c4cc5ccc(C(F)(F)F)cc5s4)C3)CC2)n1
*A* > 75%

*Q* If you can, please state the reported inhibition at 1 µM value of CN(Cc1cc(Cl)ccc1C(F)(F)F)CC1CCN(C(=O)n2ccc(NS(C)(=O)=O)n2)CC1 .
*A* > 75%

*Q* Using the record for CCN1CC2CN(c3cc(CN4CCN(C(=O)n5ccc(NS(C)(=O)=O)n5)CC4)ccc3Cl)CC2C1 (centres unmarked) , report its inhibition at 1 µM.
*A* 50 to 75%

*Q* # query: inhibition at 1 µM of entry CC(=O)Nc1ccn(C(=O)N2CCC3(CCCN3Cc3cc4cc(Cl)ccc4s3)CC2)n1
*A* > 75%

*Q* Entry under review: CN(Cc1ccc(C(F)(F)F)cc1N1CCCC1)C1(C)CCN(C(=O)n2ccc(NS(C)(=O)=O)n2)CC1 . Reported inhibition at 1 µM?
*A* > 75%

*Q* What inhibition at 1 µM value was documented for this compound, CS(=O)(=O)Nc1ccn(C(=O)N2CCN(Cc3ccc(C(F)(F)F)c(N4CC[C@@H](F)C4)c3)CC2)n1 ?
*A* > 75%

*Q* Give its inhibition at 1 µM value. Item: CS(=O)(=O)Nc1ccn(C(=O)N2CCC3(CCN(Cc4ccc(N5CCCC5)cc4C(F)(F)F)C3)CC2)n1
*A* 0 to 25%

*Q* Could you tell me which inhibition at 1 µM is on file for CS(=O)(=O)Nc1ccn(C(=O)N2CCN(Cc3ccc(Cl)c(N4CCC(F)(F)CC4)c3)CC2)n1 ?
*A* > 75%

*Q* Entry CS(=O)(=O)Nc1ccn(C(=O)N2CCC(Oc3ccc(C(F)(F)F)cc3-c3nnco3)CC2)n1 has what inhibition at 1 µM?
*A* > 75%

*Q* Item CS(=O)(=O)Nc1ccn(C(=O)N2CC3CN(Cc4cccc(Oc5ccc(Cl)cc5)c4)CC3C2)n1 (centres unmarked) has what recorded inhibition at 1 µM?
*A* 0 to 25%

*Q* Could you tell me which inhibition at 1 µM is on file for C[C@H]1CN(C(=O)n2ccc(NS(C)(=O)=O)n2)CCN1Cc1ccc(C(F)(F)F)c(N2CCC(F)CC2)c1 ?
*A* > 75%

*Q* Please give the measured inhibition at 1 µM for this compound: CC(=O)Nc1ccn(C(=O)N2CCN(Cc3cccc(C(F)(F)F)c3)CC2)n1
*A* > 75%

*Q* Looking for the measured inhibition at 1 µM of CS(=O)(=O)Nc1ccn(C(=O)N2CCC(Oc3ccc(C(F)(F)F)c(N4CCC(F)CC4)c3)CC2)n1 , can you help?
*A* > 75%

*Q* Given the entry CC(=O)Nc1ccn(C(=O)N2CC3CN(Cc4ccc(Cl)c(C5(O)CCCC5)c4)CC3C2)n1 (centres unmarked) , report its measured inhibition at 1 µM.
*A* > 75%

*Q* Reported inhibition at 1 µM, compound CS(=O)(=O)Nc1ccn(C(=O)N2CCC(Oc3ccc(C(F)(F)F)cc3N3CCCC3)CC2)n1 : ____
*A* > 75%

*Q* Look up inhibition at 1 µM for this compound: CN(Cc1ccc(C(F)(F)F)c(N2CCC(F)CC2)c1)C1(C)CCN(C(=O)n2ccc(NS(C)(=O)=O)n2)CC1
*A* > 75%

*Q* Param item = CC(=O)Nc1ccn(C(=O)N2CC3CN(Cc4ccc(Oc5ccc(Cl)cc5)cc4)CC3C2)n1 (centres unmarked) ; retrieve measured inhibition at 1 µM.
*A* > 75%

// data source = patent US11149037B2
